# Test system: Hepatitis C virus
# experimental.details: Antiviral activity against Hepatitis C virus genotype 1b in Huh-luc/neo-ET replicon cells after 48 hrs by replicon-based luciferase assay
# Assay type: functional, organism-based, Hepacivirus hominis
I'd be grateful if you could share measured pEC50 for these entries.
One number for each entry, as −log10 of the molar value.

{"columns": ["molecule", "assayed.target", "pEC50"],
 "data": [
  ["O=C(Nc1nc(-c2ccccc2)cs1)[C@@H]1CCCN1C(=O)OCc1ccccc1", "Hepatitis C virus", 5.60],
  ["COC(=O)N[C@H](C(=O)N1CCC[C@H]1c1ncc(-c2ccc(-c3ccc(-c4cnc([C@@H]5CCCN5C(=O)[C@@H](NC(=O)OC)C(C)C)[nH]4)cc3)cc2)[nH]1)C(C)C [DACLATASVIR]", "Hepatitis C virus", 11.00],
  ["COC(=O)N[C@H](C(=O)N1CC2(C[C@H]1c1ncc(-c3ccc(-c4ccc(-c5cnc([C@@H]6CC7(CN6C(=O)[C@@H](NC(=O)OC)C(C)C)OCCO7)[nH]5)cc4)cc3)[nH]1)OCCO2)C(C)C", "Hepatitis C virus", 11.00]
]}

For every record below, what is its pEC50?
1. COC(=O)N[C@H](C(=O)N1CCC[C@H]1c1ncc(-c2ccc(-c3ccc(-c4cnc(C5CCC6(CCOCC6)N5C(=O)OCc5ccccc5)[nH]4)cc3)cc2)[nH]1)C(C)C (some centres undefined)
2. COC(=O)N[C@H](C(=O)N1CCC[C@H]1c1ncc(-c2ccc(-c3ccc(-c4cnc(C5CCC6(CCOCC6)N5C(=O)[C@@H](NC(=O)OC)C(C)C)[nH]4)cc3)cc2)[nH]1)C(C)C (some centres undefined)
3. CC(=O)N1CCC[C@H]1c1ncc(-c2ccc(-c3ccc(-c4cnc([C@@H]5CCCN5C(C)=O)[nH]4)cc3)cc2)[nH]1

Result:
1: 11.20; 2: 10.20; 3: 6.90

Please look at the items below and tell me pEC50 for each one, in order.
1. O=C(Nc1cccnc1)c1ccc(-c2csc(NC(=O)[C@@H]3COC4(CCOCC4)N3C(=O)OCc3ccccc3)n2)cc1
2. COC(=O)N[C@@H](C)C(=O)N1CC2(C[C@H]1c1ncc(-c3ccc(-c4ccc(-c5cnc([C@@H]6CCCN6C(=O)[C@@H](NC(=O)OC)C(C)C)[nH]5)cc4)cc3)[nH]1)OCCCO2
3. COC(=O)N[C@@H](CC(C)C)C(=O)N1C(c2ncc(-c3ccc(-c4ccc(-c5cnc([C@@H]6CCCN6C(=O)[C@@H](NC(=O)OC)C(C)C)[nH]5)cc4)cc3)[nH]2)CCC12CCC(F)(F)CC2 (some centres undefined)
4. COC(=O)N[C@@H](C)C(=O)N1C(c2ncc(-c3ccc(-c4ccc(-c5cnc([C@@H]6CCCN6C(=O)[C@@H](NC(=O)OC)C(C)C)[nH]5)cc4)cc3)[nH]2)CCC12CCC(F)(F)CC2 (some centres undefined)
5. COC(=O)N[C@H](C(=O)N1CCC[C@H]1c1ncc(-c2ccc(-c3ccc(-c4cnc([C@@H]5CC6(CN5C(=O)[C@@H](NC(=O)OC)C(C)C)OCC(C)(C)CO6)[nH]4)cc3)cc2)[nH]1)C(C)C
6. CC[C@H](NC(=O)OC)C(=O)N1C(c2ncc(-c3ccc(-c4ccc(-c5cnc([C@@H]6CCCN6C(=O)[C@@H](NC(=O)OC)C(C)C)[nH]5)cc4)cc3)[nH]2)CCC12CCC(F)(F)CC2 (some centres undefined)
7. COC(=O)N[C@H](C(=O)N1CC2(CC1c1ncc(-c3ccc(-c4ccc(-c5cnc([C@@H]6CCCN6C(=O)[C@@H](NC(=O)OC)C(C)C)[nH]5)cc4)cc3)[nH]1)CN(C(=O)OC)C2)C(C)C (mixture of isomers)

Result:
1: 9.60; 2: 10.70; 3: 10.90; 4: 11.00; 5: 11.60; 6: 10.80; 7: 10.30

Fill in: Hepatitis C virus pEC50 for COC(=O)N[C@H](C(=O)N1CCC[C@H]1c1ncc(-c2ccc(-c3ccc(-c4cnc(C5CCC6(CCC(F)(F)CC6)N5C(C)=O)[nH]4)cc3)cc2)[nH]1)C(C)C (some centres undefined) = 10.00
